# credit: patent US6607893B2

- system: diacylglycerol acyltransferase (DGAT)
- assay.comment: DGAT enzyme assay, rat liver microsomes, [14C]triglyceride by TLC or 1-step extraction
- condition.label: read-out: IC50, DGAT activity; Group 4 rat liver microsome preparation; TLC; 37° C., 5 minutes
measure.name: pIC50
FYI, pIC50 means -log10 of a concentration in mol per litre.

Record Cc1ccc2c(c1)Oc1ccc(NC(=O)c3ccc(O)cc3)cc1C(=O)N2C . Reported pIC50: 6.04

---

- system: diacylglycerol acyltransferase (DGAT)
- assay.comment: DGAT enzyme assay, rat liver microsomes, [14C]triglyceride by TLC or 1-step extraction
- condition.label: read-out: IC50, DGAT activity; Group 3 rat liver microsome preparation; 1-Step/TLC; 37° C., 5 minutes
measure.name: pIC50
FYI, pIC50 means -log10 of a concentration in mol per litre.

Record Cc1ccc2c(c1)Oc1ccc(NC(=O)c3ccc(O)cc3)cc1C(=O)N2C . Reported pIC50: 5.64

---

- system: diacylglycerol acyltransferase (DGAT)
- assay.comment: DGAT enzyme assay, rat liver microsomes, [14C]triglyceride by TLC or 1-step extraction
- condition.label: read-out: IC50, DGAT activity; Group 3 rat liver microsome preparation; TLC; 37° C., 5 minutes
measure.name: pIC50
FYI, pIC50 means -log10 of a concentration in mol per litre.

Record Cc1ccc2c(c1)Oc1ccc(NC(=O)c3ccc(O)cc3)cc1C(=O)N2C . Reported pIC50: 5.76

---

- system: diacylglycerol acyltransferase (DGAT)
- Construct: IC50, DGAT activity; other: Group 1 rat liver microsome preparation; 1-Step/Scintillation; 37° C., 5 minutes; 1-Step/TLC; TLC; other: Group 2 rat liver microsome preparation; 1-Step/Scintillation
- assay.comment: 96-well DGAT mass screen assay
- Type: biochemical, rat
- condition.label: manually extracted samples; 22° C., 60 minutes
- Description: Plates are loaded onto the robot carousel. […] The robot arm transfers the plate to multidrop 2 for the addition of 20 μL of diluted microsomes and shaken for 1.0 minute at room temperature. The robot arm transfers the plate back to the carousel where it incubates for 1.0 hour at room temperature. […] The plates are transferred to a plate sealer to be sealed, transferred to the top count scintillation counter, and counted for 1.0 minute. […]
measure.name: pIC50
FYI, pIC50 means -log10 of a concentration in mol per litre.

Record Cc1ccc2c(c1)Oc1ccc(NC(=O)c3ccc(O)cc3)cc1C(=O)N2C . Reported pIC50: 5.77

---

- system: diacylglycerol acyltransferase (DGAT)
- Construct: IC50, DGAT activity; other: Group 1 rat liver microsome preparation; 1-Step/Scintillation; 37° C., 5 minutes; 1-Step/TLC; TLC; other: Group 2 rat liver microsome preparation; 1-Step/Scintillation
- assay.comment: 96-well DGAT mass screen assay
- Assay type: biochemical, rat
- condition.label: plate 2, 96-well mass screen extraction; 22° C., 60 minutes
measure.name: pIC50
FYI, pIC50 means -log10 of a concentration in mol per litre.

// compound Cc1ccc2c(c1)Oc1ccc(NC(=O)c3ccc(O)cc3)cc1C(=O)N2C , assay diacylglycerol acyltransferase (DGAT), pIC50 value: 5.90

---

- system: diacylglycerol acyltransferase (DGAT)
- assay.comment: DGAT enzyme assay, rat liver microsomes, [14C]triglyceride by TLC or 1-step extraction
- condition.label: read-out: IC50, DGAT inhibition; 0.8% ethanol and TLC
measure.name: IC50 (nM)
Use nM as the unit, but write only the number.

Record Cc1ccc2c(c1)Oc1ccc(NC(=O)c3ccc(O)cc3)cc1C(=O)N2C . Reported IC50: 2600

---

- system: diacylglycerol acyltransferase (DGAT)
- assay.comment: DGAT enzyme assay, rat liver microsomes, [14C]triglyceride by TLC or 1-step extraction
- condition.label: read-out: IC50, DGAT inhibition; […] acetone:chloroform (8:2) and TLC
measure.name: IC50 (nM)
Use nM as the unit, but write only the number.

Record Cc1ccc2c(c1)Oc1ccc(NC(=O)c3ccc(O)cc3)cc1C(=O)N2C . Reported IC50: 2000

---

- system: diacylglycerol acyltransferase (DGAT)
- assay.comment: DGAT enzyme assay, rat liver microsomes, [14C]triglyceride by TLC or 1-step extraction
- condition.label: read-out: IC50, DGAT inhibition; 0.8% ethanol extracted (1-step) and run on TLC
measure.name: IC50
Remember to put the unit after the number in your answer.

Record Cc1ccc2c(c1)Oc1ccc(NC(=O)c3ccc(O)cc3)cc1C(=O)N2C . Reported IC50: 2.4 µM

---

- system: diacylglycerol acyltransferase (DGAT)
- assay.comment: DGAT enzyme assay, rat liver microsomes, [14C]triglyceride by TLC or 1-step extraction
- condition.label: read-out: IC50, DGAT activity; Group 4 rat liver microsome preparation; 1-Step/Scintillation; 37° C., 5 minutes
measure.name: IC50 (nM)
Use nM as the unit, but write only the number.

Record Cc1ccc2c(c1)Oc1ccc(NC(=O)c3ccc(O)cc3)cc1C(=O)N2C . Reported IC50: 1100

---

- system: diacylglycerol acyltransferase (DGAT)
- assay.comment: DGAT enzyme assay, rat liver microsomes, [14C]triglyceride by TLC or 1-step extraction
- condition.label: read-out: IC50, DGAT activity; Group 3 rat liver microsome preparation; 1-Step/Scintillation; 37° C., 5 minutes
measure.name: pIC50
FYI, pIC50 means -log10 of a concentration in mol per litre.

Record Cc1ccc2c(c1)Oc1ccc(NC(=O)c3ccc(O)cc3)cc1C(=O)N2C . Reported pIC50: 5.69

---

- system: diacylglycerol acyltransferase (DGAT)
- assay.comment: DGAT enzyme assay, rat liver microsomes, [14C]triglyceride by TLC or 1-step extraction
- condition.label: read-out: IC50, DGAT activity; Group 4 rat liver microsome preparation; 1-Step/TLC; 37° C., 5 minutes
measure.name: IC50 (nM)
Use nM as the unit, but write only the number.

Record Cc1ccc2c(c1)Oc1ccc(NC(=O)c3ccc(O)cc3)cc1C(=O)N2C . Reported IC50: 730

---

- system: diacylglycerol acyltransferase (DGAT)
- assay.comment: DGAT enzyme assay, rat liver microsomes, [14C]triglyceride by TLC or 1-step extraction
- condition.label: read-out: IC50, DGAT inhibition; […] acetone:chloroform (8:2) extracted (1-step) and run on TLC
measure.name: pIC50
FYI, pIC50 means -log10 of a concentration in mol per litre.

Record Cc1ccc2c(c1)Oc1ccc(NC(=O)c3ccc(O)cc3)cc1C(=O)N2C . Reported pIC50: 5.60

---

- system: diacylglycerol acyltransferase (DGAT)
- assay.comment: DGAT enzyme assay, rat liver microsomes, [14C]triglyceride by TLC or 1-step extraction
- condition.label: read-out: IC50, DGAT activity; Group 1 rat liver microsome preparation; 1-Step/TLC; 37° C., 5 minutes
measure.name: pIC50
FYI, pIC50 means -log10 of a concentration in mol per litre.

Record Cc1ccc2c(c1)Oc1ccc(NC(=O)c3ccc(O)cc3)cc1C(=O)N2C . Reported pIC50: 6.02

---

- system: diacylglycerol acyltransferase (DGAT)
- Construct: IC50, DGAT activity; other: Group 1 rat liver microsome preparation; 1-Step/Scintillation; 37° C., 5 minutes; 1-Step/TLC; TLC; other: Group 2 rat liver microsome preparation; 1-Step/Scintillation
- assay.comment: 96-well DGAT mass screen assay
- Type: biochemical, rat
- condition.label: plate 1, 96-well mass screen extraction; 22° C., 60 minutes
measure.name: pIC50
FYI, pIC50 means -log10 of a concentration in mol per litre.

// compound Cc1ccc2c(c1)Oc1ccc(NC(=O)c3ccc(O)cc3)cc1C(=O)N2C , assay diacylglycerol acyltransferase (DGAT), pIC50 value: 5.82

---

- system: diacylglycerol acyltransferase (DGAT)
- assay.comment: DGAT enzyme assay, rat liver microsomes, [14C]triglyceride by TLC or 1-step extraction
- condition.label: read-out: IC50, DGAT activity; Group 2 rat liver microsome preparation; 1-Step/Scintillation; 37° C., 5 minutes
measure.name: IC50 (µM)
Use µM as the unit, but write only the number.

Record Cc1ccc2c(c1)Oc1ccc(NC(=O)c3ccc(O)cc3)cc1C(=O)N2C . Reported IC50: 1.12

---

- system: diacylglycerol acyltransferase (DGAT)
- assay.comment: DGAT enzyme assay, rat liver microsomes, [14C]triglyceride by TLC or 1-step extraction
- condition.label: read-out: IC50, DGAT activity; Group 2 rat liver microsome preparation; 1-Step/TLC; 37° C., 5 minutes
measure.name: pIC50
FYI, pIC50 means -log10 of a concentration in mol per litre.

Record Cc1ccc2c(c1)Oc1ccc(NC(=O)c3ccc(O)cc3)cc1C(=O)N2C . Reported pIC50: 5.94
